Tested on: KRas-mediated phosphorylation of ERK in H460 cells
Experiment: Inhibition of KRas-mediated phosphorylation of ERK (Cisbio HTRF pERK), H460 cells
Format: cell-based
Settings: Homo sapiens, NCI-H460, HTRF pERK
With a cut-off of 200 nM, any IC50 strictly below it is called MET; any IC50 meeting it or above is called NOT MET.

MOLECULE: CCc1c(F)ccc2cc(O)cc(-c3ncc4c(N5CCCC6(CNC(=O)N6)C5)nc(OC[C@]56CCCN5[C@H](COC(=O)N(C)C)CC6)nc4c3F)c12 (stereo partly drawn)
TARGET UNDER TEST: KRas-mediated phosphorylation of ERK in H460 cells
CLASS LABEL: MET
--
MOLECULE: C[C@@]1(O)CCCN(c2nc(OC[C@@]34CCCN3C[C@H](F)C4)nc3c(F)c(-c4ccc(F)c5sc(N)c(C#N)c45)ncc23)C1
TARGET UNDER TEST: KRas-mediated phosphorylation of ERK in H460 cells
CLASS LABEL: NOT MET
--
MOLECULE: CCc1c(F)ccc2cc(O)cc(-c3ncc4c(N5CC6CCC(C5)C6C)nc(OC[C@@]56CCCN5C[C@H](F)C6)nc4c3F)c12 (stereo partly drawn)
TARGET UNDER TEST: KRas-mediated phosphorylation of ERK in H460 cells
CLASS LABEL: NOT MET
--
MOLECULE: CCc1c(F)ccc2cc(O)cc(-c3ncc4c(N5CCC[C@@](C)(O)C5)nc(OC[C@@]56CCCN5[C@@H](COC)CC6)nc4c3F)c12
TARGET UNDER TEST: KRas-mediated phosphorylation of ERK in H460 cells
CLASS LABEL: MET
--
MOLECULE: CCc1c(F)ccc2cc(O)cc(-c3ncc4c(N5CC6CCC(C(=O)NC)(C6)C5)nc(OC[C@@]56CCCN5C[C@H](F)C6)nc4c3F)c12 (stereo partly drawn)
TARGET UNDER TEST: KRas-mediated phosphorylation of ERK in H460 cells
CLASS LABEL: MET
--
MOLECULE: C[C@@H]1C[C@@H]1c1c(Cl)cc(O)cc1-c1ncc2c(N3C[C@@H]4C[C@H](C3)[C@H](O)C4)nc(OC[C@@]34CCCN3C[C@H](F)C4)nc2c1F (stereo in doubt)
TARGET UNDER TEST: KRas-mediated phosphorylation of ERK in H460 cells
CLASS LABEL: MET
--
MOLECULE: CCc1c(F)ccc2cc(O)cc(-c3ncc4c(N5CCOC[C@@]6(CCO6)C5)nc(OC[C@@]56CCCN5C[C@H](F)C6)nc4c3F)c12
TARGET UNDER TEST: KRas-mediated phosphorylation of ERK in H460 cells
CLASS LABEL: MET
--
MOLECULE: O=S1(=O)NCC2(CCCN(c3nc(OC[C@@]45CCCN4C[C@H](F)C5)nc4c(F)c(-c5c6ccccc6cc6[nH]ncc56)ncc34)C2)N1 (stereo partly drawn)
TARGET UNDER TEST: KRas-mediated phosphorylation of ERK in H460 cells
CLASS LABEL: NOT MET
--
MOLECULE: CCc1c(F)ccc2cc(O)cc(-c3ncc4c(N5CCOCC6(CNC(=O)N6)C5)nc(OC[C@@]56CCCN5C[C@H](F)C6)nc4c3F)c12 (stereo partly drawn)
TARGET UNDER TEST: KRas-mediated phosphorylation of ERK in H460 cells
CLASS LABEL: NOT MET
--
MOLECULE: CCc1c(F)ccc2cc(O)cc(-c3ncc4c(N5C[C@@H]6C[C@H](C5)[C@H](O)C6)nc(OC[C@@H]5CC[C@H]6COCCN65)nc4c3F)c12
TARGET UNDER TEST: KRas-mediated phosphorylation of ERK in H460 cells
CLASS LABEL: MET
--
MOLECULE: CCc1c(F)ccc2cc(O)cc(-c3ncc4c(N5CCC[C@@](C)(O)C5)nc(OC[C@@]56CCCN5[C@H](COCC5CCC5)CC6)nc4c3F)c12
TARGET UNDER TEST: KRas-mediated phosphorylation of ERK in H460 cells
CLASS LABEL: MET
--
MOLECULE: CCc1c(F)ccc2cc(O)cc(-c3ncc4c(N5C[C@H](F)C[C@@H](OC)C5)nc(OC[C@@]56CCCN5C[C@H](F)C6)nc4c3F)c12
TARGET UNDER TEST: KRas-mediated phosphorylation of ERK in H460 cells
CLASS LABEL: MET

###

Molecular target: KRas^G12D (Homo sapiens, UniProt P01116, G12D)
Construct: Biotinylated KRas (corresponding to amino acids 1-169, produced at Accelegan Inc.); biotin (biotinylated); purchased Accelegan Inc
Sequence (P01116 1-169 isoform P01116-2 G12D): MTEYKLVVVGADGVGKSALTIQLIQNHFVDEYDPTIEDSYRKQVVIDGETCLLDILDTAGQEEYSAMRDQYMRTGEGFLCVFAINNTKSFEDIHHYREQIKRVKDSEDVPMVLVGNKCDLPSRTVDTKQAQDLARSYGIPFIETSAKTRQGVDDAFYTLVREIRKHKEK
Assay: KRas binding assay (TR-FRET tracer displacement), KRas G12D
MEASUREMENT KIND: IC50 (nM)

COMPOUND: O=C1NS(=O)(=O)NC12CCCN(c1nc(OC[C@@]34CCCN3C[C@H](F)C4)nc3c(F)c(-c4cc(O)cc5ccc(F)c(Cl)c45)ncc13)C2 (stereo partly drawn)
UNITS SYMBOL: nM
RELATION OPERATOR: =
READOUT VALUE: 8
//
COMPOUND: CCc1c(F)ccc2cc(O)cc(-c3ncc4c(N5CCC[C@@](C)(O)C5)nc(OC[C@]56CCCN5[C@@H](CNS(=O)(=O)N(C)C)CC6)nc4c3F)c12
UNITS SYMBOL: nM
RELATION OPERATOR: =
READOUT VALUE: 4
//
COMPOUND: CCc1c(F)ccc2cc(O)cc(-c3ncc4c(N5CCCc6nnncc6C5)nc(OC[C@@]56CCCN5C[C@H](F)C6)nc4c3F)c12
UNITS SYMBOL: nM
RELATION OPERATOR: <
READOUT VALUE: 2
//
COMPOUND: CCc1c(F)ccc2cc(O)cc(-c3ncc4c(N5C[C@@H]6[C@@H](CC(N)=O)NC(=O)[C@@H]6C5)nc(OC[C@@]56CCCN5C[C@H](F)C6)nc4c3F)c12
UNITS SYMBOL: nM
RELATION OPERATOR: =
READOUT VALUE: 3120
//
COMPOUND: CCc1c(F)ccc2cc(OC)cc(-c3ncc4c(N5C[C@@H]6C[C@H](C5)[C@H](O)C6)nc(OC[C@@]56CCCN5C[C@H](F)C6)nc4c3F)c12
UNITS SYMBOL: nM
RELATION OPERATOR: =
READOUT VALUE: 4190
//
COMPOUND: CCc1c(F)ccc2cc(O)cc(-c3ncc4c(N5CC6CCCC(C6)C5)nc(OC[C@@]56CCCN5C[C@H](F)C6)nc4c3F)c12
UNITS SYMBOL: nM
RELATION OPERATOR: =
READOUT VALUE: 127
//
COMPOUND: Cc1cc2[nH]nnc2c(-c2ncc3c(N4CCCC5(CNS(=O)(=O)N5)C4)nc(OCC45CCCN4CCC5)nc3c2F)c1C (stereo not drawn)
UNITS SYMBOL: nM
RELATION OPERATOR: =
READOUT VALUE: 10
//
COMPOUND: CCc1c(F)ccc2cc(O)cc(-c3ncc4c(N[C@H](C)c5cc(C(=O)N(C)C)nn5C)nc(OC[C@@]56CCCN5C[C@H](F)C6)nc4c3F)c12
UNITS SYMBOL: nM
RELATION OPERATOR: =
READOUT VALUE: 30
//
COMPOUND: CCc1c(F)ccc2cc(O)cc(-c3ncc4c(NCc5cc(C(=O)N(C)C)nn5C5COC5)nc(OC[C@@]56CCCN5C[C@H](F)C6)nc4c3F)c12
UNITS SYMBOL: nM
RELATION OPERATOR: =
READOUT VALUE: 13
//
COMPOUND: C#Cc1c(F)ccc2cc(O)cc(-c3ncc4c(N5CCC[C@@](C)(O)C5)nc(OC[C@]56CCCN5[C@H](CO)CC6)nc4c3F)c12
UNITS SYMBOL: nM
RELATION OPERATOR: <
READOUT VALUE: 2
//
COMPOUND: CCc1c(F)ccc2cc(O)cc(-c3ncc4c(N5Cc6n[nH]c(C(N)=O)c6C5)nc(OC[C@@]56CCCN5C[C@H](F)C6)nc4c3F)c12
UNITS SYMBOL: nM
RELATION OPERATOR: =
READOUT VALUE: 1780
//
COMPOUND: CCc1c(F)ccc2cc(O)cc(-c3ncc4c(N5CCC[C@@](C)(O)C5)nc(OC[C@@]56CCCN5[C@H](COC(C)C)CC6)nc4c3F)c12
UNITS SYMBOL: nM
RELATION OPERATOR: <
READOUT VALUE: 2

###

Biological target: KRas^G12V (Homo sapiens, UniProt P01116, G12V)
Construct: Biotinylated KRas (corresponding to amino acids 1-169, produced at Accelegan Inc.); biotin (biotinylated); purchased Accelegan Inc
Sequence (P01116 1-169 isoform P01116-2 G12V): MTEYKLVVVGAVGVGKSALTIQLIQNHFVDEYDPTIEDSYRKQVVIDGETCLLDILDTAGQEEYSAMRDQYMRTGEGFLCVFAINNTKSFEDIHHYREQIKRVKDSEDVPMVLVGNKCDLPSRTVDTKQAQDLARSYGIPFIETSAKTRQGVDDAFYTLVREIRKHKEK
Assay: KRas binding assay (TR-FRET tracer displacement), KRas G12V
molecules and their reported IC50

MOLECULE: CCc1c(F)ccc2cc(O)cc(-c3ncc4c(N[C@@H](C)c5cc(C(=O)N(C)C)nn5C)nc(OC[C@@]56CCCN5C[C@H](F)C6)nc4c3F)c12
RELATION OPERATOR: <
IC50, nM: 2
//
MOLECULE: CCc1c(F)ccc2cc(O)cc(-c3ncc4c(N5CCCC6(CCS6)C5)nc(OC[C@@]56CCCN5C[C@H](F)C6)nc4c3F)c12 (stereo partly drawn)
RELATION OPERATOR: =
IC50, nM: 10
//
MOLECULE: CCc1c(F)ccc2cc(O)cc(-c3ncc4c(N5CC6CCC(C5)C6C(N)=O)nc(OC[C@@]56CCCN5C[C@H](F)C6)nc4c3F)c12 (stereo partly drawn)
RELATION OPERATOR: <
IC50, nM: 2
//
MOLECULE: CCc1c(F)ccc2cc(O)cc(-c3ncc4c(N5CCCC6(CCC6)C5)nc(OC[C@@]56CCCN5C[C@H](F)C6)nc4c3F)c12
RELATION OPERATOR: =
IC50, nM: 4
//
MOLECULE: CCc1c(F)ccc2cc(O)cc(-c3ncc4c(NCC5(C)CC(=O)NC5=O)nc(OC[C@@]56CCCN5C[C@H](F)C6)nc4c3F)c12 (stereo partly drawn)
RELATION OPERATOR: =
IC50, nM: 3
//
MOLECULE: CCc1c(F)ccc2cc(O)cc(-c3ncc4c(N5CCC[C@@](C)(O)C5)nc(OCC5(CN(C)C)CC56CC6)nc4c3F)c12 (stereo partly drawn)
RELATION OPERATOR: =
IC50, nM: 2
